# tested on: human MOP receptors (Homo sapiens, UniProt P35372)
# Sequence (P35372 whole entry): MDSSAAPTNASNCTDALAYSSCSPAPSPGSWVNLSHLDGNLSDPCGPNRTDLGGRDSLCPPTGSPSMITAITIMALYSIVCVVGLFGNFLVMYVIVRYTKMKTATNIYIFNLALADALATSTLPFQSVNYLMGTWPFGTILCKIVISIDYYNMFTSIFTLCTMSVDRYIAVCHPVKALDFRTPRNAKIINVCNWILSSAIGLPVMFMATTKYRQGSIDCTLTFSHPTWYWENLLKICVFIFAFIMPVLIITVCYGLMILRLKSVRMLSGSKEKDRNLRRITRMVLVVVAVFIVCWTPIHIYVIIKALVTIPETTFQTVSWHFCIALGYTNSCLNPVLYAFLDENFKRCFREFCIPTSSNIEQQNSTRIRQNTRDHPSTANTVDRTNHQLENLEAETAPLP
# assay summary: Calcium mobilization assay in CHOhMOP cells expressing Gαqi5
# Assay type: cell-based
# Design: expressed in transfected cells; host or cells: CHO cells stably co-expressing Gαqi5
// pEC50 lookup, one value per entry
Quick note: pEC50 values are minus log10 of concentrations in mol/L.

Sample records with pEC50:
compound | parameter measured | experimental result
COc1ccc2c(c1OC)C13C=C(C(N)=O)CCC1(OC)C(C2)N(C)CC3 (stereo not drawn) | pEC50 | 7.25
COc1ccc2c(c1OC)C13C=C(C#N)C=CC1(OC)C(C2)N(C)CC3 (stereo not drawn) | pEC50 | 7.66

Moving on to another compound below.
For the compound COc1ccc2c(c1O)C13C=C(C#N)CCC1(OC)C(C2)N(C)CC3 (stereo not drawn) , the measured pEC50 on human MOP receptors (Homo sapiens, UniProt P35372) was 6.85
